Entry source: ChEMBL document CHEMBL4138171

- TEST NAME: Octanol/phosphate buffer distribution co-efficient, log D of the compound at 7.4 by shake-flask method
- Format: physicochemical
- CONDITION SUMMARY: pH 7.4
RESULT TYPE: logD
Please respond with just the number, no unit label.

For the compound O=C(O)/C(O)=C/C(=O)c1cc(C2CCCCC2)ccc1C1CCCCC1 , give its reported logD.
2.6

----------
- System: Staphylococcus aureus
- TEST NAME: Antibacterial activity against Staphylococcus aureus EMRSA-15 after 16 hrs by microdilution method
- Format: functional
- CONDITION SUMMARY: EMRSA-15, 16 h
RESULT TYPE: MIC

Study these solved cases before continuing.
CCCCc1ccc(C(=O)/C=C(\O)C(=O)O)cc1 :: 258 µM
Cc1cccc(C(=O)/C=C(\O)C(=O)O)c1 :: > 128 µg/mL
CCn1cc(C(=O)O)c(=O)c2cc(F)c(N3CCNCC3)cc21 :: 3.3 µM
Cc1cc(C(=O)/C=C(\O)C(=O)O)cc(C)c1O :: > 128 µg/mL

Look up MIC of Cc1ccc(C(=O)/C=C(\O)C(=O)O)c(C)c1 and report it.
> 128 µg/mL

----------
- System: Enterococcus faecalis
- TEST NAME: Antibacterial activity against Enterococcus faecalis NCTC 12697 after 16 hrs by microdilution method
- Format: functional
- CONDITION SUMMARY: NCTC 12697, 16 h
RESULT TYPE: MIC

Some compounds with recorded MIC:
O=C(O)/C(O)=C/C(=O)c1ccc(N2CCOCC2)cc1 :: > 128 µg/mL
O=C(O)/C(O)=C/C(=O)c1cccc(Br)c1 :: > 128 µg/mL

Note MIC for the compound shown: O=C(O)c1cn(C2CC2)c2cc(N3CCNCC3)c(F)cc2c1=O
1.5 µM

State, in one line, measured MIC of COc1ccccc1C(=O)/C=C(\O)C(=O)O
> 128 µg/mL

Note MIC for the compound shown: COc1cc(C)c(C(=O)/C=C(\O)C(=O)O)cc1C
> 128 µg/mL

// fetch MIC given entry O=C(O)/C(O)=C/C(=O)c1ccc(N2CCCC2)cc1
> 128 µg/mL

Give a short answer stating reported MIC for CN(C)c1ccc(C(=O)/C=C(\O)C(=O)O)cc1 .
> 128 µg/mL

Output measured MIC for this item: CCn1cc(C(=O)O)c(=O)c2cc(F)c(N3CCNCC3)cc21
6.3 µM

Look up and state reported MIC for COc1cccc(C(=O)/C=C(\O)C(=O)O)c1
> 128 µg/mL

Quickly give me recorded MIC for O=C(O)/C(O)=C/C(=O)c1cc(C2CCCCC2)ccc1C1CCCCC1
6 µM

Hello, please tell me recorded MIC for this one: Cc1cccc(C(=O)/C=C(\O)C(=O)O)c1
> 128 µg/mL

Report MIC, nothing else, for this compound: Cc1cc(C)c(C)c(C(=O)/C=C(\O)C(=O)O)c1C
516 µM

Answer with reported MIC of C[C@H]1COc2c(N3CCN(C)CC3)c(F)cc3c(=O)c(C(=O)O)cn1c23
1.4 µM

Give recorded MIC. Cc1cc(C)c(C(=O)/C=C(\O)C(=O)O)cc1C
> 128 µg/mL

Write down MIC measured for item CC(C)c1cc(C(C)C)c(C(=O)/C=C(\O)C(=O)O)c(C(C)C)c1
> 128 µg/mL

Using the record for Cc1ccc(C(=O)/C=C(\O)C(=O)O)c(C)c1 , state its measured MIC.
> 128 µg/mL

Quick one: give measured MIC for O=C(O)/C(O)=C/C(=O)c1cccc(C(F)(F)F)c1
> 128 µg/mL

Let me know recorded MIC for Cc1ccccc1C(=O)/C=C(\O)C(=O)O , thanks.
> 128 µg/mL
